tested on: Trichophyton rubrum; assay: In vitro activity against Trichophyton rubrum, MIC by twofold macro-broth dilution (Test Example 1); type: cell-based; settings: TIMM1830, 168 h, strain TIMM 1830, 7 days at 27° C.
Reported MIC values for a set of compounds

- compound: "CN(C/C=C/C#CC(C)(C)C)Cc1cccc2ccccc12"
  unit-string: "ng/mL"
  MIC: 0.63
- compound: "N#C/C(=C1/SC[C@@H](c2ccc(Cl)cc2Cl)S1)n1ccnc1"
  unit-string: "ng/mL"
  MIC: 0.63
- compound: "N#C/C(=C1/SC[C@@H](c2ccccc2Cl)S1)n1ccnc1"
  unit-string: "ng/mL"
  MIC: 0.63
- compound: "N#C/C(=C1/SCC(c2ccccc2Cl)S1)n1ccnc1 (racemic) [Racemic Compound (A)]"
  unit-string: "ng/mL"
  MIC: 1.3

---

tested on: Trichophyton mentagrophytes; assay: In vitro activity against Trichophyton mentagrophytes, MIC by twofold macro-broth dilution (Test Example 1); type: cell-based; conditions: Trichophyton mentagrophytes, IFO5466, 168 h; strain IFO 5466; 7 days at 27° C.

- molecule: "N#C/C(=C1/SC[C@@H](c2ccc(Cl)cc2Cl)S1)n1ccnc1 [Compound (B)]"
  MIC: "0.02 µg/mL"
- molecule: "N#C/C(=C1/SCC(c2ccccc2Cl)S1)n1ccnc1 (racemic) [Racemic Compound (A)]"
  MIC: "0.04 µg/mL"
- molecule: "N#C/C(=C1/SC[C@@H](c2ccccc2Cl)S1)n1ccnc1 [Compound (A)]"
  MIC: "0.02 µg/mL"
- molecule: "CN(C/C=C/C#CC(C)(C)C)Cc1cccc2ccccc12 [TBF]"
  MIC: "0.02 µg/mL"

---

system: Candida albicans; test: In vitro antifungal activity against Candida albicans, MIC by twofold micro-broth dilution (Test Example 3); format: cell-based; details: IFO1270, strain IFO 1270, 80% inhibition, 48 hours at 35° C., pH 7.0, read-out: MIC

- compound: "N#C/C(=C1/SC[C@@H](c2ccc(Cl)cc2Cl)S1)n1ccnc1"
  result-operator: "="
  MIC (µg/mL): 0.25
- compound: "CN(C/C=C/C#CC(C)(C)C)Cc1cccc2ccccc12"
  result-operator: ">"
  MIC (µg/mL): 32
- compound: "N#C/C(=C1/SCC(c2ccccc2Cl)S1)n1ccnc1 (racemic) [Racemic Compound (A)]"
  result-operator: "="
  MIC (µg/mL): 1
- compound: "N#C/C(=C1/SC[C@@H](c2ccccc2Cl)S1)n1ccnc1"
  result-operator: "="
  MIC (µg/mL): 0.25

---

system: Trichophyton mentagrophytes; assay: In vitro activity against Trichophyton mentagrophytes, MIC by twofold macro-broth dilution (Test Example 1); format: cell-based; details: Trichophyton mentagrophytes, IFO5809, 168 h; strain IFO 5809; 7 days at 27° C.
Recorded MIC values for a group of molecules are listed next.
readout-label: MIC (ng/mL)

- molecule: "N#C/C(=C1/SC[C@@H](c2ccccc2Cl)S1)n1ccnc1"
  unit-string: "ng/mL"
  value-observed: 5
- molecule: "N#C/C(=C1/SC[C@@H](c2ccc(Cl)cc2Cl)S1)n1ccnc1"
  unit-string: "ng/mL"
  value-observed: 5
- molecule: "N#C/C(=C1/SCC(c2ccccc2Cl)S1)n1ccnc1 (racemic) [Racemic Compound (A)]"
  unit-string: "ng/mL"
  value-observed: 10
- molecule: "CN(C/C=C/C#CC(C)(C)C)Cc1cccc2ccccc12"
  unit-string: "ng/mL"
  value-observed: 10

---

tested on: Trichophyton rubrum; experiment: In vitro activity against Trichophyton rubrum, MIC by twofold macro-broth dilution (Test Example 1); format: cell-based; conditions: TIMM1824, 168 h, strain TIMM 1824, 7 days at 27° C.
readout-label: MIC (ng/mL)

- compound: "N#C/C(=C1/SCC(c2ccccc2Cl)S1)n1ccnc1 (racemic) [Racemic Compound (A)]"
  value-observed: 5
- compound: "N#C/C(=C1/SC[C@@H](c2ccccc2Cl)S1)n1ccnc1"
  value-observed: 1.3
- compound: "CN(C/C=C/C#CC(C)(C)C)Cc1cccc2ccccc12"
  value-observed: 1.3
- compound: "N#C/C(=C1/SC[C@@H](c2ccc(Cl)cc2Cl)S1)n1ccnc1"
  value-observed: 1.3

---

test system: Candida albicans; test: In vitro antifungal activity against Candida albicans, MIC by twofold micro-broth dilution (Test Example 3); format: cell-based; settings: IFO1386, strain IFO 1386, 80% inhibition, 48 hours at 35° C., pH 7.0, read-out: MIC
readout-label: MIC (µg/mL)

- compound: "CN(C/C=C/C#CC(C)(C)C)Cc1cccc2ccccc12"
  unit-string: "µg/mL"
  result-operator: ">"
  value-observed: 32
- compound: "N#C/C(=C1/SCC(c2ccccc2Cl)S1)n1ccnc1 (racemic) [Racemic Compound (A)]"
  unit-string: "µg/mL"
  result-operator: "="
  value-observed: 0.25
- compound: "N#C/C(=C1/SC[C@@H](c2ccccc2Cl)S1)n1ccnc1"
  unit-string: "µg/mL"
  result-operator: "="
  value-observed: 0.125
- compound: "N#C/C(=C1/SC[C@@H](c2ccc(Cl)cc2Cl)S1)n1ccnc1"
  unit-string: "µg/mL"
  result-operator: "="
  value-observed: 0.125
